Listing of entries alongside the reported kon.
- Study System: T1, recombinant human CD39 (in-house product, 38 to 478 aa of Accession No. NM_001776.6) (human, UniProt P49961 38-478)
- T1 construct: also called rhCD39; human CD39-ECD; not shown: Myc and His tags at the C-terminus are named only for the PE-lab
- T1 sequence (looked up): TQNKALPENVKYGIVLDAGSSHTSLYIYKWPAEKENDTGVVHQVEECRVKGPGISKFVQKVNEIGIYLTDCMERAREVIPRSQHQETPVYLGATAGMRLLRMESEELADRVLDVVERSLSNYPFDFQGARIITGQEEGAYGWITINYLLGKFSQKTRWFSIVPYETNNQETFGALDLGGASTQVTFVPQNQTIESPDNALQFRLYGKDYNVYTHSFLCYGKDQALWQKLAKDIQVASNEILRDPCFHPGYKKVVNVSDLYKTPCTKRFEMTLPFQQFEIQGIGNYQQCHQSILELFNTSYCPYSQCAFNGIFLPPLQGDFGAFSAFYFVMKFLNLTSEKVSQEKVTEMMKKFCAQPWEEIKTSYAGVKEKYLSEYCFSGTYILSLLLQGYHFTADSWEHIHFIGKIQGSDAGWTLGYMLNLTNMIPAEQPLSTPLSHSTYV
- Assay Protocol: SPR Biacore8K, antibody captured on anti-human IgG, antigen as analyte

Binder	Units Of Measure	kon
I67_sc (antibody, scFv-Fc homodimer, anti-CD39 (mouse variable regions); also called scFv-Fc homodimeric antibody of anti-CD39_scFv antibody I67; not shown: linker and Fc-LALA (human IgG1 Fc with L234A and L235A)) scFv: DVQLQESGPSLVQPSQSLSINCTVSGFSLSSYGVHWVRQSPGKGLEWLGVIWRRGSTDYNAAFMSRLSITKDNSKSQVFFKMNRLQADDTATYYCAKGISTATSWFAYWGQGTLVTVSAGGGGSGGGGSGGGGSGGGGSDIVMTQSHKFMSTSVGDRVSVTCKASQNVGTNVAWYQQKPGQSPKALIYSASYRYSGVPDRFTGSGSGTDFTLTISNVQSEDLAEYFCQQYNSYPLTFGAGTKLELK	M⁻¹ s⁻¹	1.78e+06
6-3hIG_LA (antibody, V domains shown, IgG1LALA homodimeric antibody; also called IgG1LALA homodimeric antibody of anti-CD39 antibody (humanized) 6-3hIG) VH: QVQLVQSGAELVKPGASVKLSCKASGFSIKDTYVHWVKQAPGKGLEWIGKIDPANVNTKFDPKFQGRVTITADTSTNTAYLQLSSLRSEDTAVYYCALYGYDDDAYYFDYWGQGTLVTVSS VL: EIVLTQSPASLSVSPGERATISCRASESVDNYGISFMNWFQQKPGQAPKLLIYAASNQGSGVPARFSGSGSGTDFTLTISSLEPEDFAVYYCQQSKEVPYTFGQGTKLEIK	M⁻¹ s⁻¹	307000
6-3hIG_sc (antibody, scFv-Fc homodimer, anti-CD39; also called scFv-Fc homodimeric antibody of anti-CD39_scFv antibody (humanized) 6-3hIG; not shown: GGGG linker and Fc-LALA (human IgG1 Fc with L234A and L235A)) scFv: QVQLVQSGAELVKPGASVKLSCKASGFSIKDTYVHWVKQAPGKGLEWIGKIDPANVNTKFDPKFQGRVTITADTSTNTAYLQLSSLRSEDTAVYYCALYGYDDDAYYFDYWGQGTLVTVSSGGGGSGGGGSGGGGSGGGGSEIVLTQSPASLSVSPGERATISCRASESVDNYGISFMNWFQQKPGQAPKLLIYAASNQGSGVPARFSGSGSGTDFTLTISSLEPEDFAVYYCQQSKEVPYTFGQGTKLEIK	M⁻¹ s⁻¹	402000
